- System tested: human 5-HT2CR (Homo sapiens, UniProt P28335)
- Method description: [125I]DOI competition binding assay
- Applied conditions: read-out: Ki at 5-HT2CR
- Procedure: Following incubation, the samples were filtered rapidly under vacuum through glass fiber filters (GF/B, Packard) presoaked with 0.3% polyethylenimine and rinsed several times with ice cold wash buffer (50 mM Tris-HCl, pH 7.4) using a 96-sample cell harvester (Unifilter, Packard). The filters were dried and then counted for radioactivity in a scintillation counter (Topcounter, Packard) using a scintillation cocktail (Microscint-0, Packard).
pKi: −log10 of the molar value.
Measure name: pKi

{"columns": ["Molecule", "System tested", "Measure name", "Result number"],
 "data": [
  ["COc1cc(C(F)(F)F)c(OC)cc1[C@@H]1CCCNC1 [(S)-11]", "human 5-HT2CR (Homo sapiens, UniProt P28335)", "pKi", 7.89]
]}

----------
- System tested: GABAA receptor (benzod.)
- Method description: radioligand competition binding, [3H]Flunitrazepam
- Parameters: species or system rat
- Applied conditions: estimated from the % inhibition data
pIC50: −log10 of the molar value.

{"columns": ["Compound", "pIC50"],
 "data": [
  ["COc1cc(C(F)(F)F)c(OC)cc1[C@@H]1CCCNC1 [(S)-11]", "< 5.00"]
]}

----------
- System tested: Platelet Activating Factor Receptor (Homo sapiens)
- Construct: Eurofins
- Method description: radioligand competition binding, [3H]PAF
- Applied conditions: estimated from the % inhibition data

{"columns": ["Compound", "IC50"],
 "data": [
  ["COc1cc(C(F)(F)F)c(OC)cc1[C@@H]1CCCNC1 [(S)-11]", "> 10 µM"]
]}

----------
- Method description: LogP / log D determination, 1-octanol/phosphate buffer
- Type: physicochemical
- Applied conditions: pH 2.5, read-out: log D (pH2.5)
- Experimental: LogP Log D log D log D log D log D log D log D Phosphate buffer (PB) with the pH ranging from 1.8 to 12.0 and Octanol saturated with water was used. 2 μL of 10 mM DMSO stock solution of test and control compounds was aliquoted into tubes in duplicate. […] was added, respectively. […] These samples were diluted and detected by using LC -MS/MS method without running a calibration curve. The log D values were calculated with the following equation: […]

{"columns": ["Molecule", "logD"],
 "data": [
  ["COc1cc(C(F)(F)F)c(OC)cc1[C@@H]1CCCNC1 [(S)-11]", -0.536]
]}

----------
- System tested: K+ Channel (KATP) (Cricetus cricetus, UniProt Q09427)
- Construct: Eurofins
- Method description: radioligand competition binding, [3H]Glyburide
- Applied conditions: estimated from the % inhibition data
Measure name: IC50

{"columns": ["Compound", "System tested", "Measure name", "Result"],
 "data": [
  ["COc1cc(C(F)(F)F)c(OC)cc1[C@@H]1CCCNC1 [(S)-11]", "K+ Channel (KATP) (Cricetus cricetus, UniProt Q09427)", "IC50", "> 10 µM"]
]}

----------
- System tested: 5-HT7 (Homo sapiens)
pIC50: −log10 of the molar value.
Measure name: pIC50

{"columns": ["Molecule", "Result"],
 "data": [
  ["COc1cc(C(F)(F)F)c(OC)cc1[C@@H]1CCCNC1 [(S)-11]", "5.00 to 6.00"]
]}

----------
- System tested: human 5-HT2BR (Homo sapiens)
- Construct: host or cells: HEK293 (membrane homogenates)
- Method description: [125I]DOI competition binding assay
- Applied conditions: read-out: Ki at 5-HT2BR
pKi: −log10 of the molar value.

{"columns": ["Compound", "pKi"],
 "data": [
  ["COc1cc(C(F)(F)F)c(OC)cc1[C@@H]1CCCNC1 [(S)-11]", 7.89]
]}

----------
- System tested: human 5-HT2CR (Homo sapiens, UniProt P28335)
- Method description: Ca2+/Fluo-4 assay, agonist mode, stable 5-HT2CR-HEK293 cells
- Applied conditions: read-out: 5-HT2CR EC50; Table 1; at least 3 independent experiments
pEC50: −log10 of the molar value.
The reader will find reported pEC50 values listed item by item below.

{"columns": ["Compound", "pEC50"],
 "data": [
  ["CCSc1cc(OC)c(C2CCCNC2)cc1OC.Cl (stereo not drawn) [Compound 16eu]", 6.24],
  ["CCCCc1cc(OC)c(C2CCCNC2)cc1OC.Cl (stereo not drawn) [Compound 14dis]", 5.80],
  ["CCc1cc(OC)c(C2CCCNC2)cc1OC.Cl (stereo not drawn) [Compound 13eu]", 6.42],
  ["COc1cc(C2CCCNC2)c(OC)cc1C.Cl (stereo not drawn) [Compound 12dis]", 5.92],
  ["COc1cc(C2CCCNC2)c(OC)cc1Cl (stereo not drawn) [Compound 8dis]", 5.74],
  ["Br.COc1cc(C2CCNC2)c(OC)cc1Br (stereo not drawn) [Compound 5dis]", 7.74],
  ["COc1cc(C2CNC2)c(OC)cc1Br [Compound 4]", 8.28],
  ["Br.COc1cc(C2CCNC2)c(OC)cc1Br (stereo not drawn) [Compound 5eu]", 7.59],
  ["COc1cc(C2CCCNC2)c(OC)cc1I (stereo not drawn) [Compound 9dis, 3-(4-Iodo-2,5-dimethoxyphenyl)piperidine]", 5.55],
  ["COc1cc(C2CCCNC2)c(OC)cc1SC.Cl (stereo not drawn) [Compound 15dis]", 5.64],
  ["CCSc1cc(OC)c(C2CCCNC2)cc1OC.Cl (stereo not drawn) [Compound 16dis]", 6.11],
  ["CCc1cc(OC)c(C2CCCNC2)cc1OC.Cl (stereo not drawn) [Compound 13dis]", 6.19],
  ["COc1cc(C2CCCNC2)c(OC)cc1SC.Cl (stereo not drawn) [Compound 15eu]", 6.29],
  ["COc1cc(C2CCCNC2)c(OC)cc1SC(C)C (stereo not drawn) [Compound 17dis]", 5.64]
]}

----------
- System tested: Opioid receptor κ (Homo sapiens, UniProt P41145)
pIC50: −log10 of the molar value.

{"columns": ["Molecule", "pIC50"],
 "data": [
  ["COc1cc(C(F)(F)F)c(OC)cc1[C@@H]1CCCNC1 [(S)-11]", "< 5.00"]
]}

----------
- System tested: NET (Homo sapiens, UniProt P23975)
pIC50: −log10 of the molar value.

{"columns": ["Compound", "pIC50"],
 "data": [
  ["COc1cc(C(F)(F)F)c(OC)cc1[C@@H]1CCCNC1 [(S)-11]", "< 5.00"]
]}

----------
- System tested: Kainate receptor
- Method description: radioligand competition binding, [3H]Kainic acid
- Applied conditions: estimated from the % inhibition data
pIC50: −log10 of the molar value.

{"columns": ["Molecule", "System tested", "pIC50"],
 "data": [
  ["COc1cc(C(F)(F)F)c(OC)cc1[C@@H]1CCCNC1 [(S)-11]", "Kainate receptor", "< 5.00"]
]}

----------
- System tested: human 5-HT2CR (Homo sapiens, UniProt P28335)
- Method description: Ca2+/Fluo-4 assay, agonist mode, stable 5-HT2CR-HEK293 cells
- Applied conditions: Table S2

{"columns": ["Molecule", "5-HT2CR pEC50 ± S.E.M."],
 "data": [
  ["CCCCc1cc(OC)c(C2CCCNC2)cc1OC.Cl (stereo not drawn)", 5.80],
  ["COc1cc(C(F)(F)F)c(OC)cc1[C@H]1CCCNC1 [(R)-11]", 6.07],
  ["COc1cc(C2CCCNC2)c(OC)cc1I (stereo not drawn)", 5.55],
  ["COc1cc(C2CCCNC2)c(OC)cc1SC.Cl (stereo not drawn) [Compound 15dis]", 5.63],
  ["COc1cc(C2CCCNC2)c(OC)cc1SC(C)C (stereo not drawn)", 5.64],
  ["Br.COc1cc(C2CCNC2)c(OC)cc1Br (stereo not drawn) [Compound 5dis]", 7.75],
  ["CCSc1cc(OC)c(C2CCCNC2)cc1OC.Cl (stereo not drawn) [Compound 16dis]", 6.11],
  ["CCc1cc(OC)c(C2CCCNC2)cc1OC.Cl (stereo not drawn) [Compound 13dis]", 6.19],
  ["COc1cc(C2CCCNC2)c(OC)cc1Cl (stereo not drawn)", 5.75],
  ["COc1cc(C2CCCNC2)ccc1C(F)(F)F.Cl (stereo not drawn)", 5.85],
  ["COc1cc(C2CCCNC2)c(OC)cc1C.Cl (stereo not drawn)", 5.92],
  ["CCOc1cc(C(F)(F)F)c(OC)cc1C1CCCNC1.Cl (stereo not drawn)", 5.56],
  ["CCOc1cc(C2CCCNC2)c(OC)cc1C(F)(F)F.Cl (stereo not drawn) [Compound 25eu]", 6.54],
  ["Br.COc1cc(C2CCNC2)c(OC)cc1Br (stereo not drawn) [Compound 5eu]", 7.59],
  ["COc1cc(C(F)(F)F)ccc1C1CCCNC1.Cl (stereo not drawn)", 5.85],
  ["COc1cc(C(F)(F)F)c(OC)cc1[C@@H]1CCCN(C)C1 [(S)-19]", 6.04],
  ["CCc1cc(OC)c(C2CCCNC2)cc1OC.Cl (stereo not drawn) [Compound 13eu]", 6.42],
  ["CCSc1cc(OC)c(C2CCCNC2)cc1OC.Cl (stereo not drawn) [Compound 16eu]", 6.25],
  ["COc1cc(C2CNC2)c(OC)cc1Br", 8.24],
  ["COc1cc(C2CCCNC2)c(OC)cc1SC.Cl (stereo not drawn) [Compound 15eu]", 6.29]
]}
